Entries and their PI (performance index), stain removal values follow.
- run-parameters: TIDE 2X 0.78 g/l, 6 gpg, pH 8.2, 30 min at 20°C, A405; variant vs wild-type thermolysin at same protein concentration
- Procedure: Thermolysin containing protease samples were obtained from filtered broth of cultures grown in microtiter plates for 3 days at 37° C. with shaking at 280 rpm under humidified aeration. […] The incubator was set to 20° C. […] Subsequently this MTP, containing 100 μl of solution/well, was read at 405 nm in a MTP-Reader. […] The observed absorbance value was corrected for the blank value (obtained after incubation of microswatches in the absence of added enzyme). […]
Answer field: number only, no words.

Entry T049Q: single-substitution thermolysin variant (SEQ ID NO:3 numbering) (protein, listed as Geobacillus caldoproteolyticus) ITGTSTVGVGRGVLGDQKNINTTYSTYYYLQDNTRGNGIFTYDAKYRTQLPGSLWADADNQFFASYDAPAVDAHYYAGVTYDYYKNVHNRLSYDGNNAAIRSSVHYSQGYNNAFWNGSQMVYGDGDGQTFIPLSGGIDVVAHELTHAVTDYTAGLIYQNESGAINEAISDIFGTLVEFYANKNPDWEIGEDVYTPGISGDSLRSMSDPAKYGDPDHYSKRYTGTQDNGGVHINSGIINKAAYLISQGGTHYGVSVVGIGRDKLGKIFYRALTQYLTPTSNFSQLRAAAVQSATDLYGSTSQEVASVKQAFDAVGVK has what PI (performance index), stain removal?
1.30

Next:
Entry T049L: single-substitution thermolysin variant (SEQ ID NO:3 numbering) (protein, listed as Geobacillus caldoproteolyticus) ITGTSTVGVGRGVLGDQKNINTTYSTYYYLQDNTRGNGIFTYDAKYRTLLPGSLWADADNQFFASYDAPAVDAHYYAGVTYDYYKNVHNRLSYDGNNAAIRSSVHYSQGYNNAFWNGSQMVYGDGDGQTFIPLSGGIDVVAHELTHAVTDYTAGLIYQNESGAINEAISDIFGTLVEFYANKNPDWEIGEDVYTPGISGDSLRSMSDPAKYGDPDHYSKRYTGTQDNGGVHINSGIINKAAYLISQGGTHYGVSVVGIGRDKLGKIFYRALTQYLTPTSNFSQLRAAAVQSATDLYGSTSQEVASVKQAFDAVGVK has what PI (performance index), stain removal?
1.25

Next up: Q128Y: single-substitution thermolysin variant (SEQ ID NO:3 numbering) (protein, listed as Geobacillus caldoproteolyticus) ITGTSTVGVGRGVLGDQKNINTTYSTYYYLQDNTRGNGIFTYDAKYRTTLPGSLWADADNQFFASYDAPAVDAHYYAGVTYDYYKNVHNRLSYDGNNAAIRSSVHYSQGYNNAFWNGSQMVYGDGDGYTFIPLSGGIDVVAHELTHAVTDYTAGLIYQNESGAINEAISDIFGTLVEFYANKNPDWEIGEDVYTPGISGDSLRSMSDPAKYGDPDHYSKRYTGTQDNGGVHINSGIINKAAYLISQGGTHYGVSVVGIGRDKLGKIFYRALTQYLTPTSNFSQLRAAAVQSATDLYGSTSQEVASVKQAFDAVGVK
1.13

Next up: T049N: single-substitution thermolysin variant (SEQ ID NO:3 numbering) (protein, listed as Geobacillus caldoproteolyticus) ITGTSTVGVGRGVLGDQKNINTTYSTYYYLQDNTRGNGIFTYDAKYRTNLPGSLWADADNQFFASYDAPAVDAHYYAGVTYDYYKNVHNRLSYDGNNAAIRSSVHYSQGYNNAFWNGSQMVYGDGDGQTFIPLSGGIDVVAHELTHAVTDYTAGLIYQNESGAINEAISDIFGTLVEFYANKNPDWEIGEDVYTPGISGDSLRSMSDPAKYGDPDHYSKRYTGTQDNGGVHINSGIINKAAYLISQGGTHYGVSVVGIGRDKLGKIFYRALTQYLTPTSNFSQLRAAAVQSATDLYGSTSQEVASVKQAFDAVGVK
1.10
